Below, each entry is listed alongside its reported Population Membrane Permeable-Phenotype (%).
Test system: Fibroblast
test.description: Multiplex assay against human fibroblast
Type: toxicity, cell-based
conditions.used: 24 h, 1 µM, compound concentration 1 uM, replicate 1
experimental.endpoint: Population Membrane Permeable-Phenotype (%)

compound=CCCCC1=NC2(CCCC2)C(=O)N1Cc1ccc(-c2ccccc2-c2nnn[nH]2)cc1 reading_unit=% quantitative_readout=1
compound="COC[C@@H](c1ccc(C(F)(F)F)cc1)N1CCN(C2(C)CCN(C(=O)c3c(C)ncnc3C)CC2)C[C@@H]1C.O=C(O)/C=C\\C(=O)O [VICRIVIROC MALEATE]" reading_unit=% quantitative_readout=1
compound=Cc1cccc(NC(=O)CN2CCC(c3ccccn3)CC2)c1.Cl.Cl reading_unit=% quantitative_readout=0
compound=CC(C)COc1ccc(CNC(=O)N(Cc2ccc(F)cc2)C2CCN(C)CC2)cc1 reading_unit=% quantitative_readout=1
compound="O=C(NCCN1CCC(n2c(=O)[nH]c3cc(Cl)ccc32)CC1)c1ccc(F)cc1 [HALOPEMIDE]" reading_unit=% quantitative_readout=1
compound="Br.CS(=O)(=O)Nc1c(O)ccc2c1CCCC2C1=NCCN1 (stereo not drawn)" reading_unit=% quantitative_readout=0
compound=NCCc1cn(S(=O)(=O)c2c(Cl)nc3sccn23)c2ccccc12.O=C(O)C(=O)O reading_unit=% quantitative_readout=0
compound=CN1CCN(c2cc(-c3ccccc3)nc(N)n2)CC1 reading_unit=% quantitative_readout=1
compound=N#Cc1c(Oc2cccc(OS(=O)(=O)CCCC(F)(F)F)c2)cccc1C(F)(F)F reading_unit=% quantitative_readout=1
compound="Cc1sc2c(c1C)C(c1ccc(Cl)cc1)=N[C@@H](CC(=O)NCCCCCCCCNC(=O)COc1cccc3c1C(=O)N(C1CCC(=O)NC1=O)C3=O)c1nnc(C)n1-2 (stereo partly drawn)" reading_unit=% quantitative_readout=3
compound=Cc1noc(-c2ccc(-c3ccc(CC(=O)O)cc3)cc2)c1NC(=O)O[C@H](C)c1ccccc1Cl reading_unit=% quantitative_readout=0
compound=CN[C@@H](C)C(=O)N[C@H](C(=O)N1CCC[C@H]1C(=O)Nc1snnc1-c1ccccc1)C1CCCCC1 reading_unit=% quantitative_readout=1
compound="Cl.N=C(N)NC(=O)Cc1c(Cl)cccc1Cl [GUANFACINE HYDROCHLORIDE]" reading_unit=% quantitative_readout=0

* * *

Test system: U2OS
test.description: Multiplex assay against U2OS
Assay type: toxicity, cell-based
conditions.used: human, 24 h, 1 µM, compound concentration 1 uM, replicate 2
Below, each entry is listed alongside its reported Population Hoechst High Intensity Objects (%).
experimental.endpoint: Population Hoechst High Intensity Objects (%)

compound=N#Cc1cc(F)cc(-c2nc(-c3ccc(F)cn3)no2)c1 subject_of_test=U2OS quantitative_readout=0
compound=CC(C)(C)c1cc(NC(=O)Nc2ccc(-c3cn4c(n3)sc3cc(OCCN5CCOCC5)ccc34)cc2)no1 subject_of_test=U2OS quantitative_readout=0
compound=Cc1c(CC(=O)O)c2cccnc2n1Cc1ccc(S(C)(=O)=O)cc1C(F)(F)F subject_of_test=U2OS quantitative_readout=0
compound=O=C(CCCc1ccccc1)Nc1nc2ccccc2c(=O)s1 subject_of_test=U2OS quantitative_readout=0
compound=Cc1noc(-c2ccc(-c3ccc(CC(=O)O)cc3)cc2)c1NC(=O)O[C@H](C)c1ccccc1Cl subject_of_test=U2OS quantitative_readout=0
compound=CC(/C=C1\SC(=S)N(CCCC(=O)Nc2ccc(C(=O)O)c(O)c2)C1=O)=C\c1ccccc1 subject_of_test=U2OS quantitative_readout=1
compound=CC(C)COc1ccc(CNC(=O)N(Cc2ccc(F)cc2)C2CCN(C)CC2)cc1 subject_of_test=U2OS quantitative_readout=1
compound=C[C@H](N)COC(=O)[C@@H](CCCCN)NC(=O)Cc1c(-c2ccc3ccccc3c2)[nH]c2c1ccc1ccccc12 subject_of_test=U2OS quantitative_readout=1
compound="O=C(NCCN1CCC(n2c(=O)[nH]c3cc(Cl)ccc32)CC1)c1ccc(F)cc1 [HALOPEMIDE]" subject_of_test=U2OS quantitative_readout=0
compound=CCCCC(=O)N(Cc1ccc(-c2ccccc2-c2nnn[nH]2)cc1)[C@H](C(=O)O)C(C)C subject_of_test=U2OS quantitative_readout=6
compound="Cl.N=C(N)NC(=O)Cc1c(Cl)cccc1Cl [GUANFACINE HYDROCHLORIDE]" subject_of_test=U2OS quantitative_readout=0
compound=CCc1cc2cc(NS(=O)(=O)c3ccc(C#N)cc3)ccc2n(CC)c1=O subject_of_test=U2OS quantitative_readout=1
compound=Cc1cccc(NC(=O)CN2CCC(c3ccccn3)CC2)c1.Cl.Cl subject_of_test=U2OS quantitative_readout=0
